Biological target: T1, full-length human CD86 on HEK293 cells (human, UniProt P42081 24-329)
T1 sequence: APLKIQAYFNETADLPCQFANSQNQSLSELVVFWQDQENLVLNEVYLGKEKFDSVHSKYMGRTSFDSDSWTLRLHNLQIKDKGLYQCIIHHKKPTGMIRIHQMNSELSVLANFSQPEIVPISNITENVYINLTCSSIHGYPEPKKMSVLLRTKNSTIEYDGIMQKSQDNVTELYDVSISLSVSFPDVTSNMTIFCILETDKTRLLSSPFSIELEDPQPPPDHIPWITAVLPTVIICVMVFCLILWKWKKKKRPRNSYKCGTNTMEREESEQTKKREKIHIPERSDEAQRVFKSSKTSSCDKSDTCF
Experiment: cell-based or functional assay
Observable: Mean IC50 (nM), CD4+ T cell proliferation

>>> assay_result("D3-52-IgG2 (Fc fusion) MHVAQPAVVLASSRGIASFVCEYASPGKANEIRVTVLRQADSQVTEVCAMTYMKGNELTFLDDPICTGTFSGNQVNLTIQGLRAMDTGLYICKVELMYPPPYYLGIGNGTQIYVIDPEPCPDSDERKCCVECPPCPAPPVAGPSVFLFPPKPKDTLMISRTPEVTCVVVDVSHEDPEVQFNWYVDGVEVHNAKTKPREEQFNSTFRVVSVLTVVHQDWLNGKEYKCKVSNKGLPAPIEKTISKTKGQPREPQVYTLPPSREEMTKNQVSLTCLVKGFYPSDIAVEWESNGQPENNYKTTPPMLDSDGSFFLYSKLTVDKSRWQQGNVFSCSVMHEALHNHYTQKSLSLSPG")
"0.07 nM"
